assay: inhibitors of mitochondrial cytochrome c release, biochemical, purified mitochondria (AID 1603); conditions: stronger effect = lower value;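 further: mouse liver mitochondria challenged with calcium chloride; signal normalized to the plate average as 100%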
Peptide text beside a SMILES is read from it. * marks the point of attachment. For = O=C*
Parameter cytochrome c release ratio: see the listing below.
Respond using a number only.

# annotated cases, reported cytochrome c release ratio shown
- compound: "CC(C)=CCc1c2c(c3occ(-c4ccc(O)c(O)c4)c(=O)c3c1O)C=CC(C)(C)O2"
  cytochrome c release ratio: 1.28
- compound: "CSCCC(NC=O)C(=O)NC(Cc1ccccc1)C(=O)O (stereo not drawn) (For-Met-Phe-OH; configuration not given here)"
  cytochrome c release ratio: 1.19
- compound: "Nc1ncnc2c1ncn2[C@@H]1O[C@H](CO)[C@@H](O)[C@@H]1O"
  cytochrome c release ratio: 1.16
- compound: "CCN1CCCC1CNC(=O)c1cc(S(N)(=O)=O)ccc1OC (stereo not given)"
  cytochrome c release ratio: 0.88
- compound: "CON"
  cytochrome c release ratio: 0.58
- compound: "O=c1cc(-c2ccccc2)oc2c(O)c(O)ccc12"
  cytochrome c release ratio: 0.65

Which cytochrome c release ratio reading was recorded for the compound CC(C(=O)O)c1ccc(N2Cc3ccccc3C2=O)cc1 (stereo not given) ? 1.17

* * *

system: Neuropilin-2 / VEGF-C interaction (human); assay: inhibitors of NRP2–VEGF-C binding, biochemical, microplate binding format, z-score (AID 743281); conditions: microplate NRP2/VEGF-C binding assay; stronger effect = lower value
Parameter z-score: see the listing below.
Respond using a number only.

- molecule: "COCCCOc1ccnc(CS(=O)c2nc3ccccc3[nH]2)c1C (centres undefined)"
  target or system: "Neuropilin-2 / VEGF-C interaction (human)"
  recorded endpoint: "z-score"
  measurement: 0.22

Which z-score reading was recorded for the molecule O=C(O)CCc1nc(-c2ccccc2)c(-c2ccccc2)o1 ? 0.876

Which z-score reading was recorded for the molecule CN1C(=O)CC[C@H]1c1cccnc1 ? -0.371

Which z-score reading was recorded for the molecule CC[C@H]1OC(=O)[C@H](C)[C@@H](O[C@H]2C[C@@](C)(OC)[C@@H](O)[C@H](C)O2)[C@H](C)[C@@H](O[C@@H]2O[C@H](C)C[C@H](N(C)C)[C@H]2O)[C@](C)(OC)C[C@@H](C)C(=O)[C@H](C)[C@@H](O)[C@]1(C)O ? -0.251

* * *

test: modifiers of HSF1 nuclear foci, imaging, Selleck Cancer Library (AID 1347162); details: human cells, at 10 µM; stronger effect = lower value
recorded endpoint: plate-normalised HSF1 focus index
Respond using a number only.

# annotated cases, reported plate-normalised HSF1 focus index shown
- molecule: "CCN[C@H]1C[C@H](C)S(=O)(=O)c2sc(S(N)(=O)=O)cc21"
  measurement: 1.14
- molecule: "CC/C(=C(\\c1ccccc1)c1ccc(OCCN(C)C)cc1)c1ccccc1"
  measurement: 0.591
- molecule: "CN1CC[C@H](c2c(O)cc(O)c3c(=O)cc(-c4ccccc4Cl)oc23)[C@H](O)C1"
  measurement: 1.07
- molecule: "C#Cc1cccc(Nc2ncnc3cc(OCCOC)c(OCCOC)cc23)c1"
  measurement: 1.14
- molecule: "C[C@]12CC[C@@H]3c4ccc(O)cc4CC[C@H]3[C@@H]1CC[C@@H]2O"
  measurement: 1.15

Which plate-normalised HSF1 focus index reading was recorded for the molecule COc1c(C)c2c(c(O)c1C/C=C(\C)CCC(=O)O)C(=O)OC2 ? 0.964

Which plate-normalised HSF1 focus index reading was recorded for the molecule CCN(CC)CCNC(=O)c1c(C)[nH]c(/C=C2\C(=O)Nc3ccc(F)cc32)c1C ? 0.967

Which plate-normalised HSF1 focus index reading was recorded for the molecule COc1cccc2c1C(=O)c1c(O)c3c(c(O)c1C2=O)C[C@@](O)(C(C)=O)C[C@@H]3O[C@H]1C[C@H](N)[C@H](O)[C@H](C)O1 ? 0.198

Which plate-normalised HSF1 focus index reading was recorded for the molecule CC1(CN2CCC(n3c(=O)[nH]c4ccccc43)CC2)OCc2ccccc2-n2cccc21 (configuration not stated) ? 1.16

Which plate-normalised HSF1 focus index reading was recorded for the molecule Nc1nc(Cl)nc2c1ncn2[C@@H]1O[C@H](CO)[C@@H](O)[C@@H]1F ? 0.84

Which plate-normalised HSF1 focus index reading was recorded for the molecule Cc1ccc(Nc2nccc(N(C)c3ccc4c(C)n(C)nc4c3)n2)cc1S(N)(=O)=O ? 1.1

Which plate-normalised HSF1 focus index reading was recorded for the molecule Nc1cccc2c1CN(C1CCC(=O)NC1=O)C2=O (configuration not stated) ? 1.11
